The values you see were collected from paper PMC6753678.

test system: P. berghei ookinete development; settings: primary screen at 1 μM, replicate A
Assay Endpoint: % inhibition, Replicate A

>>> reading("Cc1[nH]c(C)c(-c2ccc(-c3ccccc3Cl)nc2)c(=O)c1Br [TCMDC-136157]")
"96.17%"
>>> reading("CC[C@H]1CN2CCc3cc(OC)c(OC)cc3[C@@H]2C[C@@H]1C[C@H]1NCCc2c1cc(OC)c(O)c2Cl [TCMDC-131802]")
"61.67%"
>>> reading("O=C(NCc1cccs1)[C@H](Cc1ccccc1)Nc1ccnc(NCC2CCCCC2)n1.O=C(O)C(F)(F)F [TCMDC-134708]")
"21.89%"
>>> reading("CC(C)(CN)c1cc(-c2ccc(Cl)c(O)c2)c(-c2ccncc2)o1.Cl [TCMDC-141334]")
"59.21%"
>>> reading("CCOC(=O)C1=C(C)NC2=C(C(=O)C(C(=O)OC)C(C)C2)C1c1cc(Br)c(OCC)c(OC)c1 (stereo not shown) [TCMDC-125139]")
"3.38%"
>>> reading("CCN(CC)CCN(Cc1ccc(-c2ccc(C(F)(F)F)cc2)cc1)C(=O)Cn1cc(CCCCc2cccc(F)c2F)c(=O)c2ccccc21.O=C(O)C(O)C(O)C(=O)O [TCMDC-141340]")
"60.00%"
>>> reading("CCCCCCCCc1c(C)[nH]c(C)c(C#N)c1=O [TCMDC-137431]")
"93.99%"
>>> reading("Br.CCc1ccccc1OCCCON1C(=N)N=C(N)NC1(C)C [TCMDC-131305]")
"58.24%"
>>> reading("Cc1nc2ccccc2c(O)c1-c1ccc(Cl)cc1 [TCMDC-137172]")
"27.10%"
>>> reading("COc1ccc(-c2nc3c(N)nc(N)nc3nc2-c2ccccc2Cl)cc1.COc1ccc(-c2nc3nc(N)nc(N)c3nc2-c2ccccc2Cl)cc1.Cl [TCMDC-138100]")
"50.02%"
>>> reading("Cc1[nH]c(C)c(-c2ccc(OCc3ccccc3)cc2)c(=O)c1Br [TCMDC-138901]")
"91.81%"
>>> reading("COc1cc(NC2=NS(=O)(=O)c3cc(Cl)ccc3N2C)cc(OC)c1OC.O=C(O)C(F)(F)F [TCMDC-134208]")
"117.05%"
>>> reading("Cc1nc(C)c(-c2ccc(Oc3cc(Cl)cc(Cl)c3)cc2)c(O)c1Br [TCMDC-137392]")
"78.18%"
>>> reading("COc1ccc(NS(=O)(=O)c2cc(NC(=O)Cn3ccccc3=O)ccc2N2CCCCC2)cc1 [TCMDC-124874]")
"66.12%"
>>> reading("Cc1[nH]c(C)c(-c2ccc(-c3cc(C(F)(F)F)cc(C(F)(F)F)c3)nc2)c(=O)c1Br [TCMDC-136015]")
"84.59%"
>>> reading("COCCn1c(-c2cccc(Cl)c2)nn(-c2ccc([N+](=O)[O-])cc2Cl)c1=S [TCMDC-135130]")
"51.94%"

###

system: HepG2 cells; experiment: HepG2 cytotoxicity assay; details: read-out: HepG2 cytotoxicity assay IC50; dose response confirmation
Listing: log10 IC50 of selected molecules
Assay Endpoint: log10 IC50 (log10 of the value in µM)

>>> reading("Br.CCCc1cc(C)ccc1OCCCON1C(N)=NC(N)=NC1(C)C")
-2.77
>>> reading("N#Cc1cc([N+](=O)[O-])ccc1-n1nc(C(N)=O)n(Cc2cccc(F)c2)c1=S")
1.54
>>> reading("Cc1[nH]c2ccccc2c1C(=O)C(C)Sc1nnc(-c2ccccc2F)o1 (centres unmarked)")
1.76
>>> reading("CCOc1ccc(-c2nonc2NC(=O)c2cccc(Cl)c2)cc1OCC")
1.29
>>> reading("Nc1nc(N)c2c(ccc3c2ccn3Cc2cccc(F)c2)n1")
-0.77
>>> reading("COc1cc(F)c2ncc(Cl)c(CCN3CCC(NCc4ccc5c(c4)NC(=O)CO5)CC3)c2c1.Cl")
1.09
>>> reading("COc1ccc2ncc(F)c(NC(=O)C3CCC(NCc4cc5c(F)cccc5[nH]4)CC3)c2n1.Cl (centres unmarked)")
0.56
>>> reading("CCN(CC)S(=O)(=O)n1ncc2c3c(N)nc(N)nc3ccc21.Cl")
-1.27

###

test system: P. berghei ookinete development; conditions: read-out: Pb Ookinete development assay IC50; dose response confirmation
pIC50: −log10 of the molar value.
Param threshold (6) applies to pIC50; output yes when value >= threshold, no when value < threshold.

>>> label("CC(=O)Oc1c(Br)c(C)nc(C)c1-c1ccc(Oc2ccc(OC(F)(F)F)cc2)cc1 [TCMDC-137383]")
"yes"
>>> label("Cc1[nH]c(C)c(-c2ccc(C#Cc3ccc(F)cc3F)cc2)c(=O)c1Br [TCMDC-134692]")
"yes"
>>> label("Br.CC1(C)NC(N)=NC(=N)N1OCCCOc1cccc(Cl)c1 [TCMDC-131762]")
"no"
>>> label("CCN(CC)CCCNc1nccc(N(C)c2ccc(NC(=O)Nc3cc(C(F)(F)F)ccc3F)cc2)n1.O=C(O)C(F)(F)F [TCMDC-141634]")
"no"
>>> label("CCOC(=O)[C@H](Cc1cc([N+](=O)[O-])c(Oc2ccc(OC)c(Cc3ccc(OC)c(C(C)C)c3)c2)c([N+](=O)[O-])c1)NC(=O)C(F)(F)F [TCMDC-139398]")
"no"
>>> label("CCCN1CCN(CCNc2c3ccccc3nc3ccccc23)CC1 [TCMDC-137549]")
"no"
>>> label("Cc1nc(NC2=NCN(CCCN3CCOCC3)CN2)nc2c(C)cccc12 [TCMDC-125086]")
"no"
>>> label("COc1ccc(CCc2ccc(-c3c(C)[nH]c(C)c(Cl)c3=O)cc2)cc1 [TCMDC-135654]")
"yes"
>>> label("Nc1nc(N)c2c(Cl)c(N3CCOCC3)ccc2n1 [TCMDC-137868]")
"no"
>>> label("Cc1[nH]c(C)c(-c2ccc(OCc3cc(C(F)(F)F)cc(C(F)(F)F)c3)nc2)c(=O)c1Cl [TCMDC-135814]")
"yes"
>>> label("Nc1nc(N)c2c(ccc3c2ncn3Cc2ccccc2)n1 [TCMDC-137749]")
"no"
>>> label("CC(C)(CN)c1nc(-c2ccc(Cl)c(O)c2)c(-c2ccncc2)[nH]1.Cl [TCMDC-140369]")
"yes"

###

test system: P. berghei ookinete development; conditions: primary screen at 1 μM, replicate A
Listing: % inhibition, Replicate A of selected molecules
Assay Endpoint: % inhibition, Replicate A (%)

>>> reading("CCc1c(C)nc(-n2nc(C)cc2NC(=O)c2ccc(OC)cc2OC)[nH]c1=O")
65.69
>>> reading("COc1nc2c(CCN3CCC(NCc4ccc5c(n4)NC(=O)CO5)CC3)c(Cl)cnc2cc1F.Cl")
65.11
>>> reading("COc1ccc2c(=O)c3ccc(OC)cc3[nH]c2c1")
107.15
>>> reading("Cc1nc2c(c([O-])c1Cl)-c1ccc(Oc3cccc(C(F)(F)F)c3)cc1C2=O.[Na+]")
94.15

###

tested on: 3D7-strain P. falciparum asexual parasites; test: P. falciparum asexual growth inhibition assay (Pf GIA); format: cell-based, Plasmodium falciparum; conditions: Plasmodium falciparum, 3D7; dose response confirmation; read-out: Pf asexual growth inhibition assays IC50
Assay Endpoint: IC50 (µM)

>>> reading("CC[C@H]1CN2CCc3cc(OC)c(OC)cc3[C@@H]2C[C@@H]1C[C@H]1NCCc2cc(OC)c(OC)cc21")
0.072

###

system: HepG2 cells; assay: HepG2 cytotoxicity assay; conditions: read-out: HepG2 cytotoxicity assay IC50; dose response confirmation
Listing: IC50 of selected compounds
Assay Endpoint: IC50 (µM)

>>> reading("COc1ccc(Cn2ncc3c4c(N)nc(N)nc4ccc32)cc1OC")
0.00214
>>> reading("CCNC(=O)Nc1ccc(-c2cnc(N)c(-c3nc4ccc(OC)cc4[nH]3)c2)cc1")
6.68
>>> reading("Cc1cc(C)cc(-n2c(C)cc(/C=C3\\SC(=Nc4ccc(Cl)cc4)NC3=O)c2C)c1")
100
>>> reading("COc1ccc2ncc(Cl)c(NCC3(O)CCC(NCc4ccc5c(n4)NC(=O)CS5)CC3)c2n1.Cl (centres unmarked)")
12.6
>>> reading("CC(=O)Oc1c(Cl)c(C)nc(C)c1-c1ccc(Oc2ccc(Cl)cc2)cc1")
2.63
>>> reading("Nc1nc(N)c2c(ccc3c2ccn3CCCF)n1")
1.1
>>> reading("CN(C)CCN(C)C(=O)c1cc(-c2ccncc2)c(-c2ccc(Cl)c(O)c2)o1.Cl")
53.7
>>> reading("CC(=O)Nc1ccc(Nc2c3ccccc3nc3ccccc23)cc1")
14.1

###

tested on: HepG2 cells; assay: HepG2 cytotoxicity assay; settings: unified HepG2 cytotoxicity across the three screens
Listing: Unified cytotox of selected compounds
Assay Endpoint: Unified cytotox (µM)

>>> reading("COc1ccc(-c2ccccc2)cc1NC(=S)NC1CCC(CN2CCC(c3c[nH]c4ccccc34)CC2)CC1 (stereo not shown) [TCMDC-140182]")
5.50
>>> reading("CC(C)(CNC(=O)[C@H]1CCCN1)c1nc(-c2ccc(Cl)c(O)c2)c(-c2ccncc2)[nH]1.Cl [TCMDC-141060]")
32.74
>>> reading("CCn1c2ccccc2c2cc(C=NN=c3cc(C)[nH]c4ccccc34)ccc21 [TCMDC-142186]")
5.82
>>> reading("CC(Cc1ccc(NC(=O)c2ccc(CC(C)NCc3ccc(Cl)cc3)cc2)cc1)NCCc1cccc(Cl)c1 (stereo not shown) [TCMDC-139810]")
4.03
>>> reading("COc1cccc(C23N=C(Nc4nc5ccccc5[nH]4)NC2(c2cccc(OC)c2)NC(Nc2nc4ccccc4[nH]2)=N3)c1 (stereo not shown) [TCMDC-139087]")
40.74
>>> reading("Cl.Nc1c2c(nc3ccc(NC(=O)CCCCCCc4ccccc4)cc13)CCCC2 [TCMDC-139056]")
5.42
>>> reading("O=C(Nc1ccc(-c2ccccc2)c(OCCN2CCNCC2)c1)c1ccc(-c2ccc(Cl)cc2)cc1 [TCMDC-138818]")
4.95
